STUDY CONDITIONS: in n-butanol, 298.15 K
MEASURED QUANTITY: solubility (mole fraction)
Response field accepts a number only; no unit should be typed.

solubility (mole fraction) lookup needed for `C[C@@H](O[C@H]1OCCN(Cc2n[nH]c(=O)[nH]2)[C@H]1c1ccc(F)cc1)c1cc(C(F)(F)F)cc(C(F)(F)F)c1` , thanks. 0.00177

---

STUDY CONDITIONS: in acetonitrile, 327.95 K
MEASURED QUANTITY: solubility (mole fraction)
Response field accepts a number only; no unit should be typed.

solubility (mole fraction) lookup needed for `C[C@@H](O[C@H]1OCCN(Cc2n[nH]c(=O)[nH]2)[C@H]1c1ccc(F)cc1)c1cc(C(F)(F)F)cc(C(F)(F)F)c1` , thanks. 0.000853
